Measured apparent KD of MS2 coat protein, listed per entry.
- Test system: MS2 coat protein
- test: apparent KD of MS2 coat protein; designed switch direction (-1 OFF switch, 1 ON switch): -1; higher = weaker reporter binding
- assay_context: input ligand: FMN 200 uM
readout_type: apparent KD of MS2 coat protein (nM)

1) AAACAACGGACAGGAUAUCCGAAAAUAAAGCUAGGAGAAGGGUCGAAAACAUGAGGAUCACCCAUGUGCGUGGCGGGUUCUUAG [Zaerqu] (Eterna round: R96, puzzle: Exclusion NG 1): 25.6
2) CGUCAGUGAGGAUAUGGUUUCGUGUACAUGAGGAUCACCCAUGUUUCUUGGGACUAAUUACUAGAAGGCACUGACG [JR_Ex5_Sub033] (Eterna round: R97, puzzle: Exclusion 5): 21.2
3) ACAUGUGUUGUAGGAUAUAGGACACAUGAGGAUCACCCAUGUGGUUUCAUGUCUAACCAAGCGUCCUAGAAGGACGGCAACAUG [Ex NG2 #27] (Eterna round: R96, puzzle: Exclusion NG 2): 23.4
4) AGACAUGAGGAUCACCCAUGUAGUGGUCCUGGUACGCGAACGUAGGAUAUAUACUGGAUUCCAAUGUAGAAGGACGACACCGCG [Tetege] (Eterna round: R96, puzzle: Exclusion NG 3): 90
5) AGUGUGUGGCAGGAUAUUCUGUUGAUUAGGACAGAAGAAGGGUCUACAUGAGGAUCACCCAUGUAAGCGGUUGA [Ex6 #36] (Eterna round: R97, puzzle: Exclusion 6): 275

###

- Test system: MS2 coat protein
- test: apparent KD of MS2 coat protein, switch ON state; designed switch direction (-1 OFF switch, 1 ON switch): -1; higher = weaker reporter binding
- assay_context: FMN input: 0 or 200 uM; Eterna round: R93 (includes R88 designs)
readout_type: apparent KD of MS2 coat protein (nM)

1. GGGCCACAUGAGGAUCACCCAUGUAAGGAUAUGCUAGGGAGGGAAAAAAUUUCGCCAGGCAGAAGGUACUAAAG [Janelle Amethyst 18 Mod 7 - Jieux - Exclusion 1]: 23.6
2. AGUUGGCGAGGAUAUACAUGAGGAUCACCCAUGUGAAAUCGAGAAAAAAUAGGGAAAAGUAGAAGGCGCAGACA [Ruby 63]: 20.6
3. AGAAAGGCAGGAUAUACAUGAGGAUCACCCAUGUUAAGAGUGACGGAAACGUCACGAAGUAGAAGGGCCAAGAA [The song I sing]: 20.4
4. GAAAAACAUGAGGAUCACCCAUGUAAGGAUAUGCUGAAAAAACACUGGAAACAGUGCAGCAGAAGGUACAAAAG [Mat - Exclusion 1 - Eli mod - D100]: 20.3
5. UCACACCUAGGAUAUACAUGAGGAUCACCCAUGUGGCACUCCGCAGGCAUUGCUCCCAGUAGAAGGAGGACACG [Veterexe]: 18.9
6. UCCGGAUUAGGAUAUACAUGAGGAUCACCCAUGUGACAAAAAUAUUUUACAAAACCAUGUAGAAGGAAUCCGGA [E3-1.3]: 125
7. AAAAAAGCAGGAUAUACGAACAUGUCAAAAGACGUGAAGGGACAUGAGGAUCACCCAUGUAGAAGGGUUAAGAA [JL Stem Breaker 16]: 179
8. AAAAUACAUGAGGAUCACCCAUGUGAGGAUAUCGUAAAGAAAGUGAUCAAAAGAAAUACGAGAAGGCACAUAAA [PK3]: 123
9. AAAAAAAAAGGAUAUAAAACAGAGGAUAUACAUAAAUAAAAACAUGAGGAUCACCCAUGUAGAAGGCUGAAAAA [Meechl Ex2 R2 m0]: 18.7
10. AAUAAACAUGAGGAUCACCCAUGUAAGGAUAUGCGAACAAUAAGAAGACAAUAAUAAAGCAGAAGGUACAAGAG [Ex1 sub 1]: 27
11. GGAAAGUGAGGAUAUGCAUAACAAAUACAAAGAGAAACAAAGCAGAAGGCACAUGAGGAUCACCCAUGUAAACA [Exclusion 4 Float]: 27.3
12. AAAAAGUGAGGAUAUGUCAAAAGUCACAAAAGUGACAAAAGACAGAAGGCACAUGAGGAUCACCCAUGUGAAAG [Mat - Exaclusion 4 - Eli mod - D53]: 28.9
13. GGUUGUGUAGGAUAUACAUGAGGAUCACCCAUGUGAGAGAAAAAAGUGAGAAAGAAAAGUAGAAGGACGUGACG [salish99-ex3-72]: 45.3
